- tgt: Follistatin (Homo sapiens) (UniProt P19883)
- Sequence (P19883 whole entry, looked up): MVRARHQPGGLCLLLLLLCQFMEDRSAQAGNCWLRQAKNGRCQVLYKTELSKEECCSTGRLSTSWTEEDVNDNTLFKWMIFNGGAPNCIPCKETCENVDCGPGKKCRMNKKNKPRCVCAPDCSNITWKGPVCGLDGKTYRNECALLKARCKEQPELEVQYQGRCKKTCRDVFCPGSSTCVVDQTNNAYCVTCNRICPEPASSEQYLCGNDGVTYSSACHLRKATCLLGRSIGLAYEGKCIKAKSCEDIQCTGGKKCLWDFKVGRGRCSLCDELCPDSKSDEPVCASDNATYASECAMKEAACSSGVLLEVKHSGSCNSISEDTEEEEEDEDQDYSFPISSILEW
- assay: follistatin binders on small-molecule microarrays, primary screen, biochemical, small-molecule microarray, 635/667 nm fluorescence (AID 1132)
- recorded conditions: FST binding, 635 nm fluorescence, higher = more signal
Respond with label 1 for composite z-score values of 1 and above, label 0 for values below.

# molecule, tgt, classification
data = [
    ("CC(C)(C)OC(=O)CC[C@@]1(C(=O)NCc2ccccc2)N=C(c2ccc(OCCCO)cc2)O[C@@H]1c1ccccc1", "Follistatin (Homo sapiens) (UniProt P19883)", "label 1"),
    ("CO[C@H]1COC(=O)[C@@H](C)COC(=O)[C@H](Cc2ccccc2)NC(=O)CC=C[C@H]1C", "Follistatin (Homo sapiens) (UniProt P19883)", "label 0"),
    ("C=CCc1cccc([C@@H]2[C@@H](C)CC[C@H]3C(=O)N4[C@H](c5cccc(CC=C)c5)[C@@H](C)CC[C@H]4C(=O)N23)c1", "Follistatin (Homo sapiens) (UniProt P19883)", "label 1"),
    ("O=C1O[C@@H](c2ccccc2)[C@@H](c2ccccc2)N2[C@@H](c3ccccc3OCCO)[C@]3(C(=O)Nc4ccc(C#CC5=CCCCC5)cc43)[C@@H](C(=O)O)[C@H]12", "Follistatin (Homo sapiens) (UniProt P19883)", "label 1"),
    ("COc1ccc([Si](C)(C)[C@@H]2[C@@H](CCO)O[C@]3(C(=O)N(Cc4ccc(NC(=O)[C@H](C)O)cc4)c4ccccc43)[C@H]2C)cc1", "Follistatin (Homo sapiens) (UniProt P19883)", "label 0"),
    ("O=C1OCC=C[C@H]2OC34C=CCN(Cc5ccccc5)C(=O)[C@H]3N(CCCCCO)C(=O)[C@@H]4[C@@H]12 (some centres undefined)", "Follistatin (Homo sapiens) (UniProt P19883)", "label 0"),
    ("COc1ccc([Si](C)(C)[C@H]2[C@H](CC(=O)N(CCO)Cc3ccccc3)O[C@@]3(C(=O)N(C)c4ccccc43)[C@@H]2C)cc1", "Follistatin (Homo sapiens) (UniProt P19883)", "label 1"),
    ("NC(=O)NCC#Cc1ccc2c(c1)[C@]1(C(=O)N2)[C@H](c2ccccc2OCCO)N2[C@H](c3ccccc3)[C@H](c3ccccc3)OC(=O)[C@H]2[C@@H]1C(=O)N1CCN(c2ncccn2)CC1", "Follistatin (Homo sapiens) (UniProt P19883)", "label 1"),
    ("CCCC=C(CCC)[C@@H](NC(=O)c1ccc(C(F)(F)F)cc1)c1ccccc1", "Follistatin (Homo sapiens) (UniProt P19883)", "label 0"),
    ("CC1=C([C@H](O)CCc2ccccc2)[C@H](CO)[C@@H]2C(=O)N(Cc3ccccc3)C(=O)[C@@H]2C1", "Follistatin (Homo sapiens) (UniProt P19883)", "label 0"),
]

Does COC(=O)C1=CC(c2ccc(CO)cc2)=CC(c2cccs2)N(Cc2cccc(OC(F)(F)F)c2)C=C1C(=O)OC (centres undefined) have a reported composite z-score of at least 1?
label 0

# repeat for COC(=O)C1=CC(c2ccc(CO)cc2)=CC(C2CC2)N(Cc2sc3ccccc3c2Cl)C=C1C(=O)OC (centres undefined)
label 0

# repeat for COc1ccc(C(O)C2C=CC3C(=O)N(C)C(=O)C3N2N2CCCCC2)cc1OCc1ccccc1 (centres undefined)
label 0

# repeat for C=CCN1C(=O)[C@@]2(Cc3ccccc3)N=C(c3ccc(OCCCO)cc3)O[C@H]2c2ccccc21
label 1

====

- assay: splicing luciferase reporter signal modulators, primary screen, spliceosome inhibition project, cell-based, HEK293, splice +/- reporter (AID 1101);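 further: HEK293 cells carrying a splicing-competent luciferase reporter gene; test concentration not given here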
- recorded conditions: luminescence, 24 h, higher = more signal, called active from +8 up or from −8 down
List of z-score values.
Respond with the number and no other words.

Here are 5 molecules together with their reported answers.
# molecule, readout kind, value observed
data = [
    ("CC(C)(C)OC(=O)CC[C@]1(C(=O)NCCN2CCOCC2)N=C(c2ccc(OCCCO)cc2)O[C@H]1c1ccccc1CN=[N+]=[N-]", "z-score", -1.59),
    ("C=C[C@H](OC)[C@@H](OC(=O)Nc1ccc(SC)cc1)c1ccc(OC)c(O)c1", "z-score", -1.84),
    ("C=CCC(OC(C)=O)[C@@H]1[C@@H](N(Cc2ccc(-c3cccc(C(F)(F)F)c3)o2)C(=O)Cc2ccc(F)cc2)c2cc(OCCCO)ccc2N1C(=O)c1ccc(-c2ccccc2)cc1 (some centres not stated)", "z-score", -0.291),
    ("C#CCCCON=C1C[C@@H](O)[C@@H](O)[C@@H]2[C@@H]3C(=O)N(Cc4ccc5c(c4)OCO5)C(=O)[C@@H]3CC[C@@H]12", "z-score", -0.117),
    ("CC(C)N1CC=CC23O[C@@H]4/C=C\\CCCOC(=O)C4[C@H]2C(=O)N(CCCCCO)[C@@H]3C1=O (some centres not stated)", "z-score", 0.0946),
]

Name the reported z-score value associated with the molecule CO[C@H]1O[C@H](CO)[C@@H](OC(=O)Nc2ccc(Oc3ccccc3)cc2)[C@H](OC(=O)Nc2ccccc2-c2ccccc2)[C@H]1OC(=O)Nc1ccccc1-c1ccccc1
2.76

# repeat for COC(=O)Cn1c(C(=O)N2CCCC2)cc2c1C[C@H]1CN(C(=O)c3ccccc3)[C@@](Cc3ccccc3)(C(=O)OC)[C@@H]21
0.309

====

- assay: PSAC antagonists in infected red cells, primary screen, cell-based, P. falciparum Indochina, OD700, 18 h (AID 1157)
- recorded conditions: P. falciparum Indochina infected erythrocytes, osmotic lysis OD700, 18 h; higher = more signal, called active from +8 up or from −8 down
Active and inactive are the calls of the source.
readout kind: z-score

Here are 7 compounds together with their reported answers.
# compound, z-score
rows = [
    ("Cc1ccc(S(=O)(=O)c2cc3oc2CC[C@@H](CO)NC(=O)N(C)Cc2cn(nn2)C[C@H](Cc2ccccc2)NC3=O)cc1", "2.03 (inactive)"),
    ("C[C@H]1COC(=O)[C@@H]2CCCN2C(=O)[C@@H](C)COC(=O)[C@@H]2CCCN2C1=O", "-0.187 (inactive)"),
    ("COc1ccc([Si](C)(C)[C@H]2[C@H](CC(=O)N3Cc4ccccc4C[C@H]3CO)O[C@@]3(C(=O)N(Cc4cccc(N5CCOC5=O)c4)c4ccccc43)[C@@H]2C)cc1", "0.771 (inactive)"),
    ("C=CCc1cccc([C@H]2N[C@H](C(=O)O)CC[C@@H]2C)c1", "0.443 (inactive)"),
    ("C=C(C)[C@@H]1CC=C(C(O)C2C=CC3C(=O)NC(=O)C3N2Nc2ccccn2)CC1 (stereo partly drawn)", "0.876 (inactive)"),
    ("CO[C@@H]1COC(=O)[C@H](C)NC(=O)CC=C[C@@H](C)[C@H](NS(=O)(=O)c2ccc(C)cc2)COC(=O)CC=C[C@@H]1C", "-0.0387 (inactive)"),
    ("CCCC=C(CCC)[C@@H](NS(=O)(=O)c1cccc(C(F)(F)F)c1)c1ccc(C(=O)OC)cc1", "-1.41 (inactive)"),
]

Moving on to another compound below.
Name the reported z-score value associated with the compound C=CCC(OC(C)=O)[C@@H]1[C@@H](N(Cc2cccc3ccccc23)C(=O)c2ccc(C)cc2)c2cc(OCCCO)ccc2N1C(=O)c1ccc(-c2ccccc2)cc1 (stereo partly drawn)
-1.5 (inactive)

====

- assay: HepG2 liver cancer cell viability effects, profiling panel, resazurin fluorescence, 24 h, PK04 Diversity Set (AID 1172); further: test concentration not given here
- recorded conditions: higher = more signal
Range-based classes on measured z-score: lower level = under 0.1, middle level = from 0.1 up to 1, upper level = 1 and over

Please classify: CSCC[C@@H]1NC(=O)CC=C[C@@H](C)COC(=O)[C@H](CCSC)NC(=O)CC=C[C@@H](C)COC1=O
middle level

# repeat for CCCC[C@H]1OB(O)C[C@H]2C1=C(COC)C[C@H]1C(=O)N(Cc3ccccc3)C(=O)[C@H]12
upper level

====

List of composite z-score values.
- Test system: Plasmodium falciparum Sir2 (PF13_0152, Sir2A)
- assay: pfSir2 binders on small-molecule microarrays, primary screen, biochemical, small-molecule microarray, 635 nm fluorescence (AID 1098);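 further: score merges spot fluorescence intensity with its signal-to-noise ratio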
- recorded conditions: small-molecule microarray binding, fluorescence 635 nm; higher = more signal
Respond with the number and no other words.

Here are 3 compounds together with their reported answers.
# compound, tgt, readout kind, value observed
rows = [
    ("CO[C@H]1O[C@H](CO)[C@@H](OC(=O)Nc2ccc3c(c2)OCO3)[C@H](OC(=O)Nc2ccccc2)[C@@H]1OC(=O)Nc1ccccc1", "Plasmodium falciparum Sir2 (PF13_0152, Sir2A)", "composite z-score", 0.966),
    ("CCCCCCc1nc(C2CC2)c(C)c2c1[Si](C(C)C)(C(C)C)OC2", "Plasmodium falciparum Sir2 (PF13_0152, Sir2A)", "composite z-score", -0.192),
    ("CC(C)N1CC=CC23O[C@@H]4/C=C\\CCCOC(=O)C4[C@H]2C(=O)N(CCCCCO)[C@@H]3C1=O (some centres undefined)", "Plasmodium falciparum Sir2 (PF13_0152, Sir2A)", "composite z-score", 0.21),
]

Name the reported composite z-score value associated with the compound Cc1ccc(S[C@]2(C(=O)O)CC(=O)N(Cc3cc(C(F)(F)F)cc(C(F)(F)F)c3)[C@@H]2c2ccc(CO)cc2I)cc1
1.3
